Test: Apparent volume of distribution in CD-1 mouse at 1 mg/kg, iv by LC-MS/MS analysis
Assay type: ADME, organism-based
Details: in vivo, read-out: Vz
ASSAY ENDPOINT: Vd (L/kg)
Write down the numeric answer in L/kg and omit the unit.

Query string: Can you look up the measured Vd of COc1ccc(OC)c(NC(=O)c2sc(=S)n(-c3ccc(C(F)(F)F)cc3)c2NC(=O)CCl)c1 for me?
Result string: 4.82

----------
Target: Mucosa-associated lymphoid tissue lymphoma translocation protein 1 (Homo sapiens, UniProt Q9UDY8)
Sequence (Q9UDY8 whole entry, the tested form may be a part): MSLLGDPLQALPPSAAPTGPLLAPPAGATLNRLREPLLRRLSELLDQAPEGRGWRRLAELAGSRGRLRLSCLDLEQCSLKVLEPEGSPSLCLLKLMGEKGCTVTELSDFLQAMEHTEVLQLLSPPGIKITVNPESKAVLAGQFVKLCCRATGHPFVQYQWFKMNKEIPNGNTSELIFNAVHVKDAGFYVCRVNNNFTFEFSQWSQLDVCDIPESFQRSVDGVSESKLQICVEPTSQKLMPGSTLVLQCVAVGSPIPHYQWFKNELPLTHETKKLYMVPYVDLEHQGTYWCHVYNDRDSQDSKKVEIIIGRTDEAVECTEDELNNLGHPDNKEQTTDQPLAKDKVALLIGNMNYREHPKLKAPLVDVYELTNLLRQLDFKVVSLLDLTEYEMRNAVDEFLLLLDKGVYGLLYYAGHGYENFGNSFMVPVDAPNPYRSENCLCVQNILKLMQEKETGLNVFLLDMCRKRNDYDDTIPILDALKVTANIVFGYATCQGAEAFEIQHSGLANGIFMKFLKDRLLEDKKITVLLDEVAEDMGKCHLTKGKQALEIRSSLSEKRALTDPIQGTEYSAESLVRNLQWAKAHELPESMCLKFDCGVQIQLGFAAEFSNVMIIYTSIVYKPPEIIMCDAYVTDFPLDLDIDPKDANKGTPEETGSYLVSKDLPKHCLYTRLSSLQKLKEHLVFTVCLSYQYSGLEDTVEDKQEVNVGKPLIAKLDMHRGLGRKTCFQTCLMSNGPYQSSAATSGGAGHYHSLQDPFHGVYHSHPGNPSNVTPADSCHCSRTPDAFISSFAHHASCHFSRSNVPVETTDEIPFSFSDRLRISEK
Assay: Inhibition of N-terminal his-tagged GCN4 leucine zipper fused human MALT1 […] expressed in Escherichia coli using Ac-LVSR-AMC as substrate by HTS assay
ASSAY ENDPOINT: pIC50
Lab note — pIC50 values are minus log10 of concentrations in M.

Query string: Can you look up the measured pIC50 of CCc1ccccc1NC(=O)c1sc(=S)n2c1[nH]c(=O)c1cc(C)ccc12 for me?
Result string: 4.73

Query string: Can you look up the measured pIC50 of O=C(Nc1cccc(F)c1)c1sc(=S)n2c1[nH]c(=O)c1cc(Br)ccc12 for me?
Result string: 4.79

Query string: Can you look up the measured pIC50 of COc1ccc(OC)c(NC(=O)c2sc(=S)n3c2[nH]c(=O)c2ccc(F)cc23)c1 for me?
Result string: 4.77

----------
Assay: Tmax in CD-1 mouse at 10 mg/kg, po by LC-MS/MS analysis
Type: ADME, organism-based
Conditions: in vivo
ASSAY ENDPOINT: Tmax
Write the numeric value and append its unit.

Query string: Can you look up the measured Tmax of COc1ccc(OC)c(NC(=O)c2sc(=S)n(-c3ccc(C(F)(F)F)cc3)c2NC(=O)CCl)c1 for me?
Result string: 3 h

----------
Test: AUC (0 to t) in CD-1 mouse at 1 mg/kg, ip by LC-MS/MS analysis
Assay type: ADME, organism-based
Design: dose 1 mg/kg
Details: in vivo
ASSAY ENDPOINT: AUC(0-t) (ng·h/mL)
Write down the numeric answer in ng·h/mL and omit the unit.

Query string: Can you look up the measured AUC(0-t) of COc1ccc(OC)c(NC(=O)c2sc(=S)n(-c3ccc(C(F)(F)F)cc3)c2NC(=O)CCl)c1 for me?
Result string: 732

----------
Assay: MRT (0 to t) in CD-1 mouse at 1 mg/kg, ip by LC-MS/MS analysis
Assay type: ADME, organism-based
Settings: in vivo
ASSAY ENDPOINT: MRT last

Query string: Can you look up the measured MRT last of COc1ccc(OC)c(NC(=O)c2sc(=S)n(-c3ccc(C(F)(F)F)cc3)c2NC(=O)CCl)c1 for me?
Result string: 5.95 h

----------
So I've got a bunch of compounds here, and I need their IC50 values.
Target: UniProt:Q9UDY8
Assay: Inhibition of N-terminal his-tagged GCN4 leucine zipper fused human MALT1 […] expressed in Escherichia coli using Ac-LVSR-AMC as substrate by HTS assay

Query string: Can you look up the measured IC50 of COc1ccc(OC)c(NC(=O)c2sc(=S)n(-c3cccc(C#N)c3)c2NC(=O)CCl)c1 for me?
Result string: 5.5 µM

Query string: Can you look up the measured IC50 of CCOc1ccc(OCC)c(NC(=O)c2sc(=S)n3c2[nH]c(=O)c2ccc(Cl)cc23)c1 for me?
Result string: 4.7 µM

Query string: Can you look up the measured IC50 of COc1ccc(OC)c(NC(=O)c2sc(=S)n3c2[nH]c(=O)c2ccc(Cl)cc23)c1 for me?
Result string: 5.2 µM

Query string: Can you look up the measured IC50 of CCc1ccccc1NC(=O)c1sc(=S)n2c1[nH]c(=O)c1ccccc12 for me?
Result string: 14.7 µM

Query string: Can you look up the measured IC50 of O=C(O)c1cccc(NC(=O)c2sc(=S)n3c2[nH]c(=O)c2ccc(Cl)cc23)c1 for me?
Result string: 8.36 µM

Query string: Can you look up the measured IC50 of COC(=O)c1ccc2c(=O)[nH]c3c(C(=O)Nc4cc(OC)ccc4OC)sc(=S)n3c2c1 for me?
Result string: 5.3 µM

Query string: Can you look up the measured IC50 of Cc1ccc2c(c1)c(=O)[nH]c1c(C(=O)Nc3ccccc3C)sc(=S)n12 for me?
Result string: 21.1 µM

Query string: Can you look up the measured IC50 of COc1ccccc1NC(=O)c1sc(=S)n2c1[nH]c(=O)c1cc(Cl)ccc12 for me?
Result string: 6.1 µM

Query string: Can you look up the measured IC50 of CCc1ccccc1NC(=O)c1sc(=S)n2c1[nH]c(=O)c1cc(F)c(F)cc12 for me?
Result string: 5.2 µM
